Ref: paper PMC12715762

assay: rat oral dose escalation PK study; assay type: in vivo; conditions: Sprague-Dawley, rat, plasma, po, 100 mg/kg, rat PO 100 mpk, 10% Tween
Endpoint: Tmax (h)
Could you give me the number in h? Just the number is fine.

Which measured Tmax value corresponds to Cn1cc2c(-c3cc(F)c(CN4Cc5ncccc5C4=O)c(F)c3)ccc(C(C)(C)O)c2n1 ?
4

---

assay: IV/PO pharmacokinetics (dog); format: in vivo; details: plasma; Dog (beagle), 1 mg/kg iv; read-out: Elimination t1/2 (converted)
Endpoint: half-life
Please don't drop the unit; write it after the number.

Which measured half-life value corresponds to Cn1cc2c(-c3cc(F)c(CN4Cc5ncccc5C4=O)c(F)c3)ccc(C(C)(C)O)c2n1 ?
4.1 h
